Hello, the source for this data is the supplement of paper PMC3334620, in case you need it.

# Target: Hap1 (UniProt P0CE41)
# Sequence (P0CE41 whole entry): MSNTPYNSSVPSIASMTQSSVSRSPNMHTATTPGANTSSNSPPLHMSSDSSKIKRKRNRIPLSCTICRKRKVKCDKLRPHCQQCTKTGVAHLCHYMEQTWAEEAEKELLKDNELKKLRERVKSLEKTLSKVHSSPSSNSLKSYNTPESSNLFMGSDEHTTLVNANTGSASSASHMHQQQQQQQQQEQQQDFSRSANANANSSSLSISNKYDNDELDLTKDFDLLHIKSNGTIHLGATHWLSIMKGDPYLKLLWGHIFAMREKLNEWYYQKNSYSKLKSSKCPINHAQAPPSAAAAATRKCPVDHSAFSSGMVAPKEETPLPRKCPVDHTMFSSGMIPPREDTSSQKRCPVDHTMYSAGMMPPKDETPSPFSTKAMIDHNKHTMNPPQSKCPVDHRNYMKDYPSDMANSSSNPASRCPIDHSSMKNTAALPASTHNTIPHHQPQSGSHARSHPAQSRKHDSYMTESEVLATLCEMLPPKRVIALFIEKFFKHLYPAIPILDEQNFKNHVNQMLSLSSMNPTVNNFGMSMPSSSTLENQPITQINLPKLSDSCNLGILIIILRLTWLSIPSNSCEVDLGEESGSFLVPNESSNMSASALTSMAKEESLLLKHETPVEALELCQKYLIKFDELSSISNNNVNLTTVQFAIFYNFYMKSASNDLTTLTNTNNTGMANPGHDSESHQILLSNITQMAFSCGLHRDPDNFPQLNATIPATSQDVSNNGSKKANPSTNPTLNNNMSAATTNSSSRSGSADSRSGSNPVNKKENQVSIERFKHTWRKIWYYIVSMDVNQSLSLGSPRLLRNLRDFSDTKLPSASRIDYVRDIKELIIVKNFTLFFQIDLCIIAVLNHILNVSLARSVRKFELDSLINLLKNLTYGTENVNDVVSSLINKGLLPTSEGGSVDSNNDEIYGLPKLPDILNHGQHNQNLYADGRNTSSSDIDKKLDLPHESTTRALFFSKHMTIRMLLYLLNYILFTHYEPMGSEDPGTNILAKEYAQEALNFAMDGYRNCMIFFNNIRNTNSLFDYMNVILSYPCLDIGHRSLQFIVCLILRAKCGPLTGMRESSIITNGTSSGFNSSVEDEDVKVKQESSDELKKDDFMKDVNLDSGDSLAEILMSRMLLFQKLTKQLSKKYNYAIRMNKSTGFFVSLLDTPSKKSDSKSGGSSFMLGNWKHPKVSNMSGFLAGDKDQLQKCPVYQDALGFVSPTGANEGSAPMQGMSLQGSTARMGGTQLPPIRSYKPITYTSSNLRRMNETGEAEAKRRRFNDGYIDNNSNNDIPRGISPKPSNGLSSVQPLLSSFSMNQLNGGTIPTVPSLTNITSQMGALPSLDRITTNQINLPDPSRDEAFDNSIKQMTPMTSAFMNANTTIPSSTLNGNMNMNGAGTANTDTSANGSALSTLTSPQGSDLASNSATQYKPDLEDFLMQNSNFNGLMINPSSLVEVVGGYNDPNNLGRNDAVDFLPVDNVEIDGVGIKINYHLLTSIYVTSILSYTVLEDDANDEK
# Assay explanation: PBM E-score (8-mer binding enrichment) (E-score (-0.5 to 0.5)); higher = stronger / more preferred TF binding
# Condition info: protein concentration: 200 nM; construct: GST-DNA-binding domain
The full ranking holds about 33,000 sequences; the median of “E-score (-0.5 to 0.5)” is about -0.053, and the highest 2% start at about 0.37. For the sample, the highest values were picked, then their nearest neighbours and some sequences at random.
Each record's class is read off its PBM E-score using these ranges: category 1 = under 0.02, category 2 = from 0.02 up to 0.3, category 3 = 0.3 and over

Use these answered entries as a reference point.
AGTTGCGC: category 2
AGTTATCC: category 2
GGGAAATA: category 2
GCAGGCTA: category 1
ACGGCCGT: category 3
GGCAAATA: category 2
GCTTGACA: category 1
ATCCGGTG: category 3
CTCCAGAG: category 1
AGTCGTAA: category 1

Please indicate the class for ATCGGAGC based on its PBM E-score.
category 3

Please indicate the class for AATAGATA based on its PBM E-score.
category 1

Please indicate the class for GTACGGAC based on its PBM E-score.
category 2

Please indicate the class for ATCTCCGA based on its PBM E-score.
category 3

Please indicate the class for CGGCGCTC based on its PBM E-score.
category 2

----------
I'd appreciate it if you could supply PBM E-score values for the items below.
# Target: Hap1 (UniProt P0CE41)
# Assay explanation: PBM E-score (8-mer binding enrichment) (E-score (-0.5 to 0.5)); higher = stronger / more preferred TF binding
# Condition info: protein concentration: 200 nM; construct: GST-DNA-binding domain
The full ranking holds about 33,000 sequences; the median of “E-score (-0.5 to 0.5)” is about -0.053, and the highest 2% start at about 0.37. The sample as a whole holds a higher share of the highest values than the screen did.
One number for each entry.

I'm hoping you can list PBM E-score for every sequence here, please.
1. AGGCCGGA
2. CTCGGAAA
3. ACAGCGCT

0.336
0.346
-0.0282

----------
I'd appreciate it if you could supply PBM E-score values for the items below.
# Target: Hap1 (UniProt P0CE41)
# Assay explanation: PBM E-score (8-mer binding enrichment) (E-score (-0.5 to 0.5)); higher = stronger / more preferred TF binding
# Condition info: protein concentration: 200 nM; construct: GST-DNA-binding domain
Over roughly 33,000 sequences, “E-score (-0.5 to 0.5)” has its median near -0.053; the highest 2% begin near 0.37. The full list was thinned out, with the highest values kept by preference.
Numbers only.

ATTCGGGA: 0.197
ACGACGGA: 0.199
ACGGAACG: 0.195

# context switch: different sequence, same PBM E-score
What the record says about CTATATCC : PBM E-score is 0.202

----------
# Target: Hap1 (UniProt P0CE41)
# Assay explanation: PBM E-score (8-mer binding enrichment) (E-score (-0.5 to 0.5)); higher = stronger / more preferred TF binding
# Condition info: protein concentration: 200 nM; construct: GST-DNA-binding domain
Whole data set: some 33,000 sequences, median “E-score (-0.5 to 0.5)” near -0.053, cut for the highest 2% near 0.37. The entries come from a sample that favours the highest values as a whole.
Reported property: PBM E-score
Give bare numbers.

Examples with their reported PBM E-score follow.
TAAGAATA: -0.141
GGACGGAC: 0.358
AACGCGGG: 0.267
ATTTCGGG: 0.29

Lab entry: Hap1 (UniProt P0CE41) assay, sequence ATCGGAAA , PBM E-score = 0.426

----------
I'd appreciate it if you could supply PBM E-score values for the items below.
# Target: Hap1 (UniProt P0CE41)
# Assay explanation: PBM E-score (8-mer binding enrichment) (E-score (-0.5 to 0.5)); higher = stronger / more preferred TF binding
# Condition info: protein concentration: 200 nM; construct: GST-DNA-binding domain
Over roughly 33,000 sequences, “E-score (-0.5 to 0.5)” has its median near -0.053; the highest 2% begin near 0.37. Only a selection was taken, and the highest values are over-represented in it overall.
Give bare numbers.

I'm hoping you can list PBM E-score for every sequence here, please.
1. AACTCAGG
2. CAACACCG
3. AGACTGAT
4. TAGCTTGA

1: -0.116; 2: 0.13; 3: -0.159; 4: -0.226

----------
# Target: Hap1 (UniProt P0CE41)
# Assay explanation: PBM E-score (8-mer binding enrichment) (E-score (-0.5 to 0.5)); higher = stronger / more preferred TF binding
# Condition info: protein concentration: 200 nM; construct: GST-DNA-binding domain
The full ranking holds about 33,000 sequences; the median of “E-score (-0.5 to 0.5)” is about -0.053, and the highest 2% start at about 0.37. Only a selection was taken, and the highest values are over-represented in it overall.
Record true whenever PBM E-score is at 0.2 or higher; record false when lower.

Use these answered entries as a reference point.
ATTCGCCG: true
ATCGGGTA: true
GCCCGGGC: true
CGTTCCAG: false
CCGGCCCA: true
CCGCTATA: true
GTACCGGA: true
ACCCGGGA: true

Check the entry CATCGCCG : does PBM E-score equal or exceed 0.2?
true

Check the entry ACTTATCA : does PBM E-score equal or exceed 0.2?
false

----------
# Target: Hap1 (UniProt P0CE41)
# Assay explanation: PBM E-score (8-mer binding enrichment) (E-score (-0.5 to 0.5)); higher = stronger / more preferred TF binding
# Condition info: protein concentration: 200 nM; construct: GST-DNA-binding domain
Over roughly 33,000 sequences, “E-score (-0.5 to 0.5)” has its median near -0.053; the highest 2% begin near 0.37. The list comes from a sample in which the highest values are over-represented; it also holds close analogues and randomly drawn sequences.
Record class 1 whenever PBM E-score is at 0.02 or higher; record class 0 when lower.

Use these answered entries as a reference point.
GAGGGGTA: class 1
GACACAGA: class 0
AATCGCCC: class 1
AAACGCCG: class 1
ATCTCCCG: class 1
ACCCGGGT: class 1
CCCCGGAG: class 1
AGGAATGC: class 0
CTCTCCGC: class 1
TACGGTGA: class 1

Check the entry GAGGAACC : does PBM E-score equal or exceed 0.02?
class 0

Check the entry ATCTCCCC : does PBM E-score equal or exceed 0.02?
class 1

Check the entry AATGCCTC : does PBM E-score equal or exceed 0.02?
class 0

Check the entry CGGGTGAG : does PBM E-score equal or exceed 0.02?
class 1

Check the entry ATATGGAC : does PBM E-score equal or exceed 0.02?
class 0

Check the entry CGTACCTC : does PBM E-score equal or exceed 0.02?
class 0

Check the entry ATTTACCA : does PBM E-score equal or exceed 0.02?
class 0

Check the entry GAAACGTC : does PBM E-score equal or exceed 0.02?
class 0

Check the entry CGGAAATC : does PBM E-score equal or exceed 0.02?
class 1

Check the entry CGGTGATA : does PBM E-score equal or exceed 0.02?
class 1

Check the entry CGGAAATA : does PBM E-score equal or exceed 0.02?
class 1

Check the entry CACCATCC : does PBM E-score equal or exceed 0.02?
class 1

----------
# Target: Hap1 (UniProt P0CE41)
# Assay explanation: PBM E-score (8-mer binding enrichment) (E-score (-0.5 to 0.5)); higher = stronger / more preferred TF binding
# Condition info: protein concentration: 200 nM; construct: GST-DNA-binding domain
Over roughly 33,000 sequences, “E-score (-0.5 to 0.5)” has its median near -0.053; the highest 2% begin near 0.37. The sample holds the highest values, similar sequences and a random draw of the others, so the mix is not that of the screen.
Reported property: PBM E-score

Examples with their reported PBM E-score follow.
GTACTGAC: -0.119
ACCCGGGG: 0.306
GTCATGAC: -0.111
GAAAAGTA: -0.0758
AAGTGTGC: -0.132

I'm hoping you can list PBM E-score for every sequence here, please.
1. AGCCAGGC
2. CCCCTGTA
3. CGTACGAG
4. GGGTGTTA

[-0.141, -0.154, 0.0155, 0.0847]

I'm hoping you can list PBM E-score for every sequence here, please.
1. ACGGCCGC
2. ATTTAATC
3. ATGCGGAG

0.228
0.153
0.222

----------
# Target: Hap1 (UniProt P0CE41)
# Assay explanation: PBM E-score (8-mer binding enrichment) (E-score (-0.5 to 0.5)); higher = stronger / more preferred TF binding
# Condition info: protein concentration: 200 nM; construct: GST-DNA-binding domain
Over roughly 33,000 sequences, “E-score (-0.5 to 0.5)” has its median near -0.053; the highest 2% begin near 0.37. The list comes from a sample in which the highest values are over-represented; it also holds close analogues and randomly drawn sequences.
Reported property: PBM E-score
Numbers only.

CCGGAAAC: 0.426
ATATCTTC: 0.152
GTGCGGAA: 0.159
AGAACATG: -0.0473

I'm hoping you can list PBM E-score for every sequence here, please.
1. AAAGGAGC
2. ACGTCTAC
3. CGCGGAGC
4. GTCTCCGA
5. CAACGCCG

-0.141
-0.179
0.274
0.332
0.264
